# test.description: Solubility of antibacterial peptides in solution
# Type: physicochemical
# condition.parameters: water
Square brackets hold non-standard residues; d marks the D form. Peptide text beside a SMILES is read from it.
Recorded solubility at 12 h by entry

CC(C)[C@@H](NC(=O)[C@H](N)Cc1c[nH]c2ccccc12)C(=O)N[C@@H](C(=O)N[C@H](Cc1c[nH]c2ccccc12)C(=O)N[C@H](Cc1c[nH]c2ccccc12)C(=O)N[C@@H](C(=O)N[C@H](CCCNC(=N)N)C(=O)N[C@H](CCCNC(=N)N)C(=O)N[C@H](CCCNC(=N)N)C(N)=O)C(C)C)C(C)C [KSH40, wvvwwvrrr] (H-[dW][dV][dV][dW][dW][dV][dR][dR][dR]-NH2; N-terminus assumed) : > 2000 µM
CC(C)[C@@H](NC(=O)[C@H](N)Cc1c[nH]c2ccccc12)C(=O)N[C@@H](C(=O)N[C@H](Cc1c[nH]cn1)C(=O)N[C@@H](C(=O)N[C@@H](C(=O)N[C@H](Cc1c[nH]c2ccccc12)C(=O)N[C@H](CCCNC(=N)N)C(=O)N[C@H](CCCNC(=N)N)C(=O)N[C@H](CCCNC(=N)N)C(N)=O)C(C)C)C(C)C)C(C)C [KSH45, wvvhvvwrrr] (H-[dW][dV][dV][dH][dV][dV][dW][dR][dR][dR]-NH2; N-terminus assumed) : > 2000 µM

Moving on to the next compound.
Noted for CC[C@@H](C)[C@@H](NC(=O)[C@@H](Cc1c[nH]c2ccccc12)NC(=O)[C@H](NC(=O)[C@@H](CC(C)C)NC(=O)[C@H](N)Cc1c[nH]c2ccccc12)C(C)C)C(=O)N[C@H](Cc1c[nH]c2ccccc12)C(=O)N[C@H](CCCNC(=N)N)C(=O)N[C@H](CCCNC(=N)N)C(N)=O [KSH32, wlvwiwrr] (H-[dW][dL][dV][dW][dI][dW][dR][dR]-NH2; N-terminus assumed) : its solubility at 12 h reads > 2000 µM
